assay: Toxicity in human MDA-MB-468 cells assessed as cell viability at 5 uM incubated for 24 hrs by MTT assay (reference value: 100%); assay type: cell-based; details: read-out: Activity
QUANTITY KIND: viability at 24 h, 5 µM (%)

[[record]]
cpd_smiles = "C[C@@H]1C=C2C(=O)O[C@@H]3CC[C@H](C1)[C@]23O"
quantity_kind = "viability at 24 h, 5 µM"
unit_of_measure = "%"
endpoint_value = 97

[[record]]
cpd_smiles = "C=C1C(=O)O[C@@H]2CC[C@H](CBr)[C@]12O"
quantity_kind = "viability at 24 h, 5 µM"
unit_of_measure = "%"
endpoint_value = 100

[[record]]
cpd_smiles = "C=C1C(=O)O[C@@H]2CC[C@H](CBr)[C@]12OC"
quantity_kind = "viability at 24 h, 5 µM"
unit_of_measure = "%"
endpoint_value = 98

